# assay-system: Proteasome Macropain subunit (Homo sapiens) (UniProt P49721)
# Sequence (P49721 whole entry): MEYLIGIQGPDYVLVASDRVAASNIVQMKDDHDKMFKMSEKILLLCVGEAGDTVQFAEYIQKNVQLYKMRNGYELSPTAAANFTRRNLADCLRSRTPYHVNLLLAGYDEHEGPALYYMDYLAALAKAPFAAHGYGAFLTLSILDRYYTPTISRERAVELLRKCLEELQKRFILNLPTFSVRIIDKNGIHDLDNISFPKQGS
# assay-procedure: Inhibition of trypsin like activity of 26S proteasome beta 2 subunit in human U266 cells assessed as residual activity using […] as substrate at 10 uM preincubated for 1 hr followed by substrate addition and measured after 4 hrs by fluorescence assay relative to control
# Assay type: cell-based
experimental-endpoint: Activity (%)

The examples below pair each entry with its known result.
compound: O=C[C@H](Cc1ccccc1)NC(=O)[C@H](Cc1ccccc1)NC(=O)c1cc(Cl)ccc1OCc1ccccc1
Activity, %: 78.4
//
compound: CC(C)CC(C=O)NC(=O)[C@H](CC(C)C)NC(=O)[C@H](CC(C)C)NC(=O)c1cc(Cl)ccc1OCc1ccccc1 (some centres undefined)
Activity, %: 64.2

A = CC(C)C[C@@H](C=O)NC(=O)c1cc(Cl)ccc1OCc1ccccc1
B = CC(C)CC(C=O)NC(=O)[C@H](CC(C)C)NC(=O)c1cc(Cl)ccc1OCc1ccccc1 (some centres undefined)
Prompt: Lowest Activity? choose A or B Response format: the label of the selected entry.
Completion: A
(A: 57.5%, B: 88.1%)

Cited source for all entries: ChEMBL document CHEMBL4052623
